The origin of these recorded values is PubChem BioAssay (NCI).

- Test system: UACC-62 melanoma
- measurement_protocol: NCI-60 one-dose screen, 48 h (100 = growth as untreated, 0 = no growth, -100 = all killed)
- experimental_setup: 10 µM unless noted
Compounds without any hit were thinned out: in the full panel of roughly 83,000, 20% have a hit.
measured_attribute: growth (%)
Enter your answer as a number in %; do not include the unit.

Examples with their reported growth follow.
{"columns": ["compound", "growth (%)"],
 "data": [
  ["CCN(c1ccc(Cl)cc1)c1nc(-c2ccc([N+](=O)[O-])cc2)cs1", 79.8],
  ["CC(C)(C)n1cc(-c2ccnc(NCCNS(=O)(=O)c3cccc(F)c3)c2)c(-c2ccccc2)n1", 81.7]
]}

Looking up O=S(=O)(Nc1ccccc1)c1ccc(C2CC3(Cl)C(Cl)=C(Cl)C2(Cl)C3(Cl)Cl)cc1 (centres undefined) , I see its growth listed as 43.6

Looking up Cc1ccc(Sc2oc(-c3ccc(C)cc3)nc2[P+](c2ccccc2)(c2ccccc2)c2ccccc2)cc1 , I see its growth listed as -38.1

Looking up O=C(O)/C(=C\c1ccc(Cl)cc1)c1ccc(Cl)cc1 , I see its growth listed as 94.3

Looking up COc1cc(-c2cc(-c3cccs3)c(C#N)c(N3CCOCC3)n2)cc(OC)c1OC , I see its growth listed as 63.6

Looking up CC(C)N1CCN(Cc2ccc3c(NNC(=O)c4ccccc4)nc4cc(F)ccc4n23)CC1 , I see its growth listed as 7.2

Looking up C/C(=C(/c1ccc(Cl)cc1)c1ccc(OCCN2CCCC2)cc1)c1ccc(Cl)cc1 , I see its growth listed as 93.9

Looking up Cc1cccc(N2CCN(CC(O)COc3ccc(Cl)cc3)CC2)c1 (centres undefined) , I see its growth listed as 96.4

Looking up C[C@]12C=CC(=O)C=C1CCC1C2[C@@H](O)C[C@@]2(C)C1CC[C@]2(O)C(=O)COC(=O)CCC(=O)O (some centres undefined) , I see its growth listed as 104

Looking up CCOC(=O)c1cn2ncnc(Oc3ccc(NC(=O)NC4CCCCC4)c(Cl)c3)c2c1C , I see its growth listed as 80.4

Looking up COc1cc(NC(C)CCCNC(C)C)c2ncccc2c1OC (centres undefined) , I see its growth listed as 85

Looking up Nc1c(C(=O)Nc2ccccc2Cl)sc2nc3c(cc12)C(O)CCC3 (centres undefined) , I see its growth listed as 47.9

Looking up O=C1CC(N2C(=O)/C(=C/C(Cl)=C\c3ccc([N+](=O)[O-])cc3)SC2=S)C(=O)N1c1ccc(Cl)cc1 (centres undefined) , I see its growth listed as 16.4
